protocol_text: SAD study pharmacokinetic analysis
Assay type: in vivo, human
test_context: male, human, plasma, oral, 100 mg, SAD, KH176 100 mg, fed; read-out: Cmax (Geomean)
test_readout: Cmax (ng/mL)
Write the number in ng/mL without appending the unit.

Provide one value: measured Cmax of "Cc1c(C)c2c(c(C)c1O)CC[C@@](C)(C(=O)N[C@@H]1CCCNC1)O2.Cl"
165

---

protocol_text: MAD study pharmacokinetic analysis
Format: in vivo, human
test_context: male, human, plasma, oral, 100 mg, MAD, KH176 100 mg b.i.d, Day 7; read-out: tmax* (median)
test_readout: Tmax
Note to self: number, then unit, no commentary.

Tell me Tmax reported for "Cc1c(C)c2c(c(C)c1O)CC[C@@](C)(C(=O)N[C@@H]1CCCNC1)O2.Cl"
1 h

---

protocol_text: SAD study pharmacokinetic analysis
Type: in vivo, human
test_context: male, human, plasma, oral, 30 mg, SAD, KH176 30 mg, fasted; read-out: Cmax (Geomean)
test_readout: Cmax (ng/mL)
Answer format: numeric, ng/mL implied, no suffix.

Report measured Cmax; entry is Cc1c(C)c2c(c(C)c1O)CC[C@@](C)(C(=O)N[C@@H]1CCCNC1)O2.Cl [KH176]
56.2

---

protocol_text: MAD study pharmacokinetic analysis
Type: in vivo, human
test_context: male, human, plasma, oral, steady state, BID; read-out: AUCtau (one dosing interval, 12 hours), range
test_readout: AUC

Return value of AUC for input "Cc1c(C)c2c(c(C)c1O)CC[C@@](C)(C(=O)N[C@@H]1CCCNC1)O2.Cl" , no commentary.
2.13 to 3.68 µg·h/mL

---

protocol_text: SAD study pharmacokinetic analysis
Format: in vivo, human
test_context: male, human, plasma, oral, 100 mg, SAD, KH176 100 mg, fasted; read-out: Cmax (Geomean)
Description: Dose escalation to the next dose level was done after evaluation of the safety and the first 24-hour pharmacokinetic results of the previous dose. […] For mean value calculations, all values below the limit of quantification (LOQ) were set to zero. […] The PK parameters were calculated on the basis of the actual blood sampling time points relative to dosing. […] In urine, the percentage of dose excreted in urine was determined for the single- and multiple-dose administration.
test_readout: Cmax (ng/mL)
Write down the numeric answer in ng/mL and omit the unit.

Read the entry Cc1c(C)c2c(c(C)c1O)CC[C@@](C)(C(=O)N[C@@H]1CCCNC1)O2.Cl [KH176] and write its reported Cmax.
167

---

protocol_text: SAD study pharmacokinetic analysis
Assay type: in vivo, human
test_context: male, human, plasma, oral, 100 mg, SAD, KH176 100 mg, fasted; read-out: tmax* (median)
Procedure: Dose escalation to the next dose level was done after evaluation of the safety and the first 24-hour pharmacokinetic results of the previous dose. […] For mean value calculations, all values below the limit of quantification (LOQ) were set to zero. […] The PK parameters were calculated on the basis of the actual blood sampling time points relative to dosing. […] In urine, the percentage of dose excreted in urine was determined for the single- and multiple-dose administration.
test_readout: Tmax
The answer consists of two parts: a number and, after it, its unit.

Fill in Tmax for record "Cc1c(C)c2c(c(C)c1O)CC[C@@](C)(C(=O)N[C@@H]1CCCNC1)O2.Cl"
1 h

---

protocol_text: SAD study pharmacokinetic analysis
Type: in vivo, human
test_context: male, human, plasma, oral, 2000 mg, SAD, KH176 2000 mg, fasted; read-out: Cmax (Geomean)
test_readout: Cmax (ng/mL)
Your answer should be a plain number; it is taken to be in ng/mL.

Check the records and state Cmax for "Cc1c(C)c2c(c(C)c1O)CC[C@@](C)(C(=O)N[C@@H]1CCCNC1)O2.Cl"
5990

---

protocol_text: MAD study pharmacokinetic analysis
Type: in vivo, human
test_context: male, human, plasma, oral, 400 mg, MAD, KH176 400 mg b.i.d, Day 1; read-out: tmax* (median)
Protocol: Dose escalation to the next dose level was done after evaluation of the safety and the first 24-hour pharmacokinetic results of the previous dose. […] For mean value calculations, all values below the limit of quantification (LOQ) were set to zero. […] The PK parameters were calculated on the basis of the actual blood sampling time points relative to dosing. […] In urine, the percentage of dose excreted in urine was determined for the single- and multiple-dose administration.
test_readout: Tmax (h)
// units = h; emit number, no label

Specify reported Tmax for the compound shown: Cc1c(C)c2c(c(C)c1O)CC[C@@](C)(C(=O)N[C@@H]1CCCNC1)O2.Cl [KH176]
1

---

protocol_text: SAD study pharmacokinetic analysis
Assay type: in vivo, human
test_context: male, human, plasma, oral, 800 mg, SAD, KH176 800 mg, fasted; read-out: tmax* (median)
test_readout: Tmax

State its Tmax: "Cc1c(C)c2c(c(C)c1O)CC[C@@](C)(C(=O)N[C@@H]1CCCNC1)O2.Cl"
1.5 h

---

protocol_text: MAD study pharmacokinetic analysis
Type: in vivo, human
test_context: male, human, plasma, oral, 200 mg, MAD, KH176 200 mg b.i.d, Day 7; read-out: Cmax (Geomean)
test_readout: Cmax (ng/mL)
Report only the number, with the unit ng/mL understood.

Supply recorded Cmax for "Cc1c(C)c2c(c(C)c1O)CC[C@@](C)(C(=O)N[C@@H]1CCCNC1)O2.Cl" here.
748

---

protocol_text: MAD study pharmacokinetic analysis
Format: in vivo, human
test_context: male, human, plasma, oral, 200 mg, MAD, KH176 200 mg b.i.d, Day 1; read-out: tmax* (median)
test_readout: Tmax (h)
Number in h, nothing else.

Provide Tmax value for the following molecule: "Cc1c(C)c2c(c(C)c1O)CC[C@@](C)(C(=O)N[C@@H]1CCCNC1)O2.Cl"
1.75

---

protocol_text: SAD study pharmacokinetic analysis
Format: in vivo, human
test_context: male, human, plasma, oral, 30 mg, SAD, KH176 30 mg, fasted; read-out: tmax* (median)
test_readout: Tmax
Write the numeric value and append its unit.

Output measured Tmax for this item: "Cc1c(C)c2c(c(C)c1O)CC[C@@](C)(C(=O)N[C@@H]1CCCNC1)O2.Cl"
1.25 h

---

protocol_text: SAD study pharmacokinetic analysis
Assay type: in vivo, human
test_context: male, human, plasma, oral, 100 mg, fasted condition (100 mg); read-out: median tmax
test_readout: Tmax

Given the compound "Cc1c(C)c2c(c(C)c1O)CC[C@@](C)(C(=O)N[C@@H]1CCCNC1)O2.Cl" , write its reported Tmax.
~1 h

---

protocol_text: SAD study pharmacokinetic analysis
Type: in vivo, human
test_context: male, human, plasma, oral, 100 mg, SAD, KH176 100 mg, fed; read-out: AUC0-inf (Geomean)
Experimental: Dose escalation to the next dose level was done after evaluation of the safety and the first 24-hour pharmacokinetic results of the previous dose. […] For mean value calculations, all values below the limit of quantification (LOQ) were set to zero. […] The PK parameters were calculated on the basis of the actual blood sampling time points relative to dosing. […] In urine, the percentage of dose excreted in urine was determined for the single- and multiple-dose administration.
test_readout: AUC(0-inf) (ng·h/mL)
The response must be a number in ng·h/mL with no trailing unit.

Look up and state reported AUC(0-inf) for "Cc1c(C)c2c(c(C)c1O)CC[C@@](C)(C(=O)N[C@@H]1CCCNC1)O2.Cl"
1970

---

Tested on: primary human fibroblasts from patients with Leigh syndrome
protocol_text: Oxidative stress-induced cell death (BSO) assay, Leigh patient fibroblasts
Assay type: cell-based
test_context: Homo sapiens; in vitro fibroblast assays (Redox assay); fibroblast type not given, values match Leigh; read-out: EC50
Measured pEC50 values are reported for all entries that follow.
// pEC50 is dimensionless: -log10 of concentration (M)

molecule	reported_measurement
COC1=C(OC)C(=O)C(CCCCCCCCCCO)=C(C)C1=O [Idebenone, reference compound]	5.83

The record that follows has no pEC50 shown yet.
Entry Cc1c(C)c2c(c(C)c1O)CC[C@@](C)(C(=O)N[C@@H]1CCCNC1)O2.Cl [KH176, hydrochloride] needs its pEC50 filled in; supply it.
6.74

---

protocol_text: MAD study pharmacokinetic analysis
Assay type: in vivo, human
test_context: male, human, plasma, oral, 100 mg, MAD, KH176 100 mg b.i.d, Day 7; read-out: Cmax (Geomean)
test_readout: Cmax

Fill in Cmax for record "Cc1c(C)c2c(c(C)c1O)CC[C@@](C)(C(=O)N[C@@H]1CCCNC1)O2.Cl"
353 ng/mL
